Target: T1, hK1 (human tissue kallikrein 1), recombinant (human, UniProt P06870 25-262)
T1 construct: Expressed in P. pastoris from KLK1 cDNA and purified; enzymatically active; also called KLK1; Recombinant (Pichia) Kallikrein
Test: SPR
recorded-metric: kon (M⁻¹ s⁻¹)
Express your answer in M⁻¹ s⁻¹, writing the number without its unit.

>  <binder>
M0107-D01 (Fab, V domains shown) VH: EVQLLESGGGLVQPGGSLRLSCAASGFTFSWYGMGWVRQAPGKGLEWVSVIRPSGGTTRYADSVKGRFTISRDNSKNTLYLQMNSLRAEDTAVYYCARGGRYYSLDYWGQGTLVTVSS VL: AQSELTQPASVSGPPGQSITISCTGTSSDVGGYNYVSWYQQHPGKAPKLIIYEVSNRPSGVSYRFSASKSDNTASLTISGVQAEDEADYYCSSYKRGGTYVFGTGTTVIVL

>  <observed-result>
896000

$$$$
>  <binder>
M0114-G09 (Fab, V domains shown) VH: EVQLLESGGGLVQPGGSLRLSCAASGFTFSHYAMDWVRQAPGKGLEWVSVIYSSGGKTTYADSVKGRFTISRDNSKNTLYLQMNSLRAEDTAMYYCARVGVWYGMDVWGQGTTVTVSS VL: AQSALTQPASVSGSPGQSITISCTGTSSDVGSYKLVSWYQQHPGKAPKLMIYEGSKRPSGVSNRFSGSKSGNTASLTISGLQAEDEADYYCCSYAGSSTWVFGGGTKLTVLG

>  <observed-result>
424000

$$$$

Let us move to another entry and its kon.
[Q] Tell me kon reported for M0102-H11 (Fab, V domains shown) VH: EVQLLESGGGLVQPGGSLRLSCAASGFTFSKYPMTWVRQAPGKGLEWVSSISSSGGKTQYADSVKGRFTISRDNSKNTLYLQMNSLRAEDTAVYYCTRGGSSTLYFMDVWGQGTTVTVSS VL: DIQMTQSPATLSLSPGERATLSCRASQSVSSYLAWYQQKPGQAPRLLIYGASSRATGIPDRFSGSGSGTDFTLTISSLEPEDFAVYYCQQRGGWPLTFGGGTKVEIRR
[A] 2.29e+06

Origin of values: patent US7329737
